For each record, write down the corresponding inhibition of growth at 37.5 g/ha.
System: Chenopodium album
Experiment: Post-emergence herbicidal activity against Chenopodium album assessed as growth inhibition at 37.5 g.a.i./ha applied at two-leaf stage measured after 15 days
Format: functional
Conditions: 360 h, read-out: GI
Give me the value, and tack the unit on after it.

The following compounds have reported results that may help.
CCOC(=O)C(C)N1C(=O)C(C)Oc2cc(F)c(N3C(=O)C4=C(CCCC4)C3=O)cc21 (centres undefined) | 100%
C#CCN1C(=O)COc2cc(F)c(N3C(=O)C4=C(CCCC4)C3=O)cc21 | 100%
CCOC(=O)C(CC)N1C(=O)C(C)Oc2cc(F)c(N3C(=O)C4=C(CCCC4)C3=O)cc21 (centres undefined) | 100%

Exercise: Fill in the blank: the reported inhibition of growth at 37.5 g/ha of COC(=O)C(C)N1C(=O)C(C)Oc2cc(F)c(N3C(=O)C4=C(CCCC4)C3=O)cc21 (centres undefined) is ____.
Solution: 100%

###

Assay: Phytotoxicity against Gossypium (cotton) assessed as growth inhibition at 300 g.a.i/ha pre-emergent application measured after 15 days by greenhouse crop selectivity assay
Assay type: organism-based
Conditions: in vivo, 300 g.a.i/ha, read-out: GI
For each record, write down the corresponding inhibition at 360 h.

C#CCN1C(=O)COc2cc(F)c(N3C(=O)C4=C(CCCC4)C3=O)cc21 | > 10%

Kindly review the next molecule as well.
Exercise: Fill in the blank: the reported inhibition at 360 h of COC(=O)C(C)N1C(=O)C(C)Oc2cc(F)c(N3C(=O)C4=C(CCCC4)C3=O)cc21 (configuration not stated) is ____.
Solution: > 10%

###

System: Digitaria sanguinalis
Assay: Post-emergence herbicidal activity against Digitaria sanguinalis(hairy crabgrass) assessed as growth inhibition at 15 g.a.i./ha applied at one-leaf stage measured after 15 days
Assay type: functional
Conditions: 360 h, read-out: GI
Measured property: inhibition of growth at 15 g/ha
Give me the value, and tack the unit on after it.

The following compounds have reported results that may help.
COC(=O)C(C)N1C(=O)C(C)Oc2cc(F)c(N3C(=O)C4=C(CCCC4)C3=O)cc21 (centres undefined) | 20%
CCOC(=O)C(CC)N1C(=O)C(C)Oc2cc(F)c(N3C(=O)C4=C(CCCC4)C3=O)cc21 (centres undefined) | 50%
C#CCN1C(=O)COc2cc(F)c(N3C(=O)C4=C(CCCC4)C3=O)cc21 | 90%

Kindly review the next compound as well.
Exercise: Fill in the blank: the reported inhibition of growth at 15 g/ha of CCOC(=O)C(C)N1C(=O)C(C)Oc2cc(F)c(N3C(=O)C4=C(CCCC4)C3=O)cc21 (centres undefined) is ____.
Solution: 30%

###

Test: Phytotoxicity against Glycine max (soybean) assessed as growth inhibition at 300 g.a.i/ha pre-emergent application measured after 15 days by greenhouse crop selectivity assay
Assay type: organism-based
Conditions: in vivo, 300 g.a.i/ha, read-out: GI
Measured property: inhibition at 360 h

Exercise: Fill in the blank: the reported inhibition at 360 h of C#CCN1C(=O)COc2cc(F)c(N3C(=O)C4=C(CCCC4)C3=O)cc21 is ____.
Solution: > 10%

###

System: Arachis hypogaea
Assay: Phytotoxicity against Arachis hypogaea (peanut) assessed as growth inhibition at 37.5 g.a.i/ha pre-emergent application measured after 15 days by greenhouse crop selectivity assay
Type: organism-based
Settings: in vivo, other, 360 h
Measured property: growth inhibition (GI)

C#CCN1C(=O)COc2cc(F)c(N3C(=O)C4=C(CCCC4)C3=O)cc21 | Not Active
COC(=O)C(C)N1C(=O)C(C)Oc2cc(F)c(N3C(=O)C4=C(CCCC4)C3=O)cc21 (centres undefined) | Not Active
CCOC(=O)C(C)N1C(=O)C(C)Oc2cc(F)c(N3C(=O)C4=C(CCCC4)C3=O)cc21 (centres undefined) | Not Active
CCOC(=O)C(CC)N1C(=O)C(C)Oc2cc(F)c(N3C(=O)C4=C(CCCC4)C3=O)cc21 (centres undefined) | Not Active
